Target: NAD-dependent deacetylase Sirtuin 1 (human, UniProt Q96EB6)
Sequence (Q96EB6 2-747 limits assumed): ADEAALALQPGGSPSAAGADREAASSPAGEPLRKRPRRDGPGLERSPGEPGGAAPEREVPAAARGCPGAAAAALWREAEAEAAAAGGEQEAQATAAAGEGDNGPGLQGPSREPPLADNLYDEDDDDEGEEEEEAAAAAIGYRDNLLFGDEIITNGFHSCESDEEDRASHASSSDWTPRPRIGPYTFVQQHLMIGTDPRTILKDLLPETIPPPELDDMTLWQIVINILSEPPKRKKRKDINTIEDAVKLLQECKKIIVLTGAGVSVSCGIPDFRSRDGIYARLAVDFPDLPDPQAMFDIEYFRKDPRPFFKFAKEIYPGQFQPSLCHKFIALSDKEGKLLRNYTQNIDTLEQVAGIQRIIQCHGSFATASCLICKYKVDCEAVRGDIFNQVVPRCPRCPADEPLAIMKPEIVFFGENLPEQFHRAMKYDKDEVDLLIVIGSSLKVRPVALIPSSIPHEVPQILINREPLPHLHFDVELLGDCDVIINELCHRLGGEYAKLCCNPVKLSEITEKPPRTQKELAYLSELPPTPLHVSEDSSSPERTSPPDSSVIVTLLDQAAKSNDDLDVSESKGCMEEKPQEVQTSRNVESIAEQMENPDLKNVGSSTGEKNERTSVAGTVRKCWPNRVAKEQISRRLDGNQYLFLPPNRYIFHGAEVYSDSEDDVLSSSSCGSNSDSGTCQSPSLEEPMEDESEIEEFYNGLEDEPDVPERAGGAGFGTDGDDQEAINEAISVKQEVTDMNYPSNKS
Experiment: primary screen, delta tm
Parameters: single well (n = 1, as 'the same TSA')
Settings: 10 µM
Whole data set: some 3,200 compounds, median “TSA(with NAD+) / Primary screening (TSA) / delta Tm (K)” near -0.04, cut for the highest 2% near 0.37. This excerpt belongs to a sample that is enriched for the highest values.
Classify by TSA(with NAD+) / Primary screening (TSA) / delta Tm (K). Ranges: range 1 (below -0.08 K), range 2 (-0.08 K to below 0.06 K), range 3 (0.06 K or more)

*Q* Which bin should I file O=C(CC12CC3CC(CC(C3)C1)C2)NCC(=O)Nc1ccc(Sc2nc3ccccc3[nH]2)cc1 under?
*A* range 3

*Q* Which bin should I file COC(=O)/C=C1/NC(=O)CS1 under?
*A* range 1

*Q* Which bin should I file Cc1ccccc1-c1nnn(Cc2cc(=O)oc3c(C)c(C)ccc23)n1 under?
*A* range 1

*Q* Which bin should I file Cc1ccc(C(=O)Nc2nc3ccc(NS(=O)(=O)c4ccc5c(c4)CCC(=O)N5)cc3s2)s1 under?
*A* range 3

*Q* Which bin should I file O=C(COC(=O)C1=COCCO1)Nc1cccc2c1C(=O)c1ccccc1C2=O under?
*A* range 2

*Q* Which bin should I file Cc1cnc(N2CCC(Oc3ccnc(C(N)=O)c3)CC2)s1 under?
*A* range 1

*Q* Which bin should I file O=C(COC(=O)c1ccc2c(c1)S(=O)(=O)c1ccccc1C2=O)Nc1ncc(Cl)cc1Cl under?
*A* range 3

*Q* Which bin should I file Cc1ccc(N(C)S(=O)(=O)c2cccc(C(=O)Nc3cc(F)ccc3C)c2)cc1 under?
*A* range 2

* * *

Molecular target: NAD-dependent deacetylase Sirtuin 1 (human)
Assay: primary screen, delta tm
Parameters: single well (n = 1, as 'the same TSA')
Details: 10 µM
Procedure: A total of 3,192 compounds extracted from the proposed lists were first screened by thermal shift assay (TSA), which determined a melting temperature shift (ΔTm) of Sirtuin 1 upon the addition of a test compound at a concentration of 10 µM (n = 1) with primary hit criteria of ΔTm > 0.45 K or ΔTm < −1.5 K. Primary hits (48 compounds) were retested in the same assay at three concentrations (5, 10, 20 µM, n = 4) for hit confirmation and for dose-dependency check. […]
In all, about 3,200 compounds were measured (“TSA(with NAD+) / Primary screening (TSA) / delta Tm (K)”: median about -0.04, highest 2% from about 0.37 on). The sample as a whole holds a higher share of the highest values than the screen did.
Tick y if TSA(with NAD+) / Primary screening (TSA) / delta Tm (K) is 0.05 K or greater. Tick n if TSA(with NAD+) / Primary screening (TSA) / delta Tm (K) is less than 0.05 K.

*Q* Is reported TSA(with NAD+) / Primary screening (TSA) / delta Tm (K) greater than or equal to 0.05 K here: O=C(CSc1nnnn1-c1ccc(O)cc1)N1N=C(c2ccc3ccccc3c2)CC1c1ccccc1 (stereo not shown)
*A* y

*Q* Is reported TSA(with NAD+) / Primary screening (TSA) / delta Tm (K) greater than or equal to 0.05 K here: O=c1c2ccccc2ncn1CC(O)c1cccc(F)c1 (stereo not shown)
*A* n

*Q* Is reported TSA(with NAD+) / Primary screening (TSA) / delta Tm (K) greater than or equal to 0.05 K here: CC1CCc2sc(C(=O)Nc3ccccc3Cc3ccccc3)cc2C1 (stereo not shown)
*A* n

*Q* Is reported TSA(with NAD+) / Primary screening (TSA) / delta Tm (K) greater than or equal to 0.05 K here: O=c1c2ccncc2ncn1CC(O)c1cccc(Cl)c1 (stereo not shown)
*A* n

*Q* Is reported TSA(with NAD+) / Primary screening (TSA) / delta Tm (K) greater than or equal to 0.05 K here: CC(=C/c1ccccc1)/C=N/NC(=O)c1cc(-c2ccc(C)cc2)n[nH]1
*A* y

*Q* Is reported TSA(with NAD+) / Primary screening (TSA) / delta Tm (K) greater than or equal to 0.05 K here: O=c1c2ccccc2ncn1CC(O)c1ccccc1Cl (stereo not shown)
*A* y

*Q* Is reported TSA(with NAD+) / Primary screening (TSA) / delta Tm (K) greater than or equal to 0.05 K here: Cc1ccccc1CC(=O)Nc1ccc(N2CCN(Cc3ccccc3)CC2)cc1
*A* y

*Q* Is reported TSA(with NAD+) / Primary screening (TSA) / delta Tm (K) greater than or equal to 0.05 K here: CC(=O)N1N=C(c2ccc(O)cc2)CC1c1ccccc1 (stereo not shown)
*A* y

*Q* Is reported TSA(with NAD+) / Primary screening (TSA) / delta Tm (K) greater than or equal to 0.05 K here: Cc1ccc(-c2cc(C(=O)OC(C)C(=O)Nc3cccc([N+](=O)[O-])c3)[nH]n2)cc1 (stereo not shown)
*A* y
